Record form. Attribute: Th-T assay signal, mean of three wells (Fig. 7a). Fill in for each entry.
biological target: Aβ42 (Homo sapiens, UniProt P05067); test: Th-T (thioflavin-T) assay of Aβ42 aggregation; assay type: biochemical; settings: column suffix _10; reading M1
Sequence (P05067 672-713): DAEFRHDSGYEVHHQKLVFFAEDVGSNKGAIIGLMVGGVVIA
Numbers only.

C=C1CCC2C(C)(CCC=C(C)C)C(O)CCC2(C)C1Cc1c(OC)oc(C)c(C(=O)OC)c1=O (centres unmarked) | 0.2293

Take each entry in turn and give its Th-T assay signal, mean of three wells (Fig. 7a).
1. C=C1CCC2C(C)(CCC=C(C)C)C(O)CCC2(C)C1Cc1c(OC)oc(CO)c(C)c1=O (centres unmarked)
2. C=C1CC[C@@H]2[C@](C)(CC[C@H]3O[C@H](C=C(C)C)C[C@@]23C)[C@@H]1Cc1c(OC)oc(CO)c(C)c1=O

[0.2279, 0.2292]

Take each entry in turn and give its Th-T assay signal, mean of three wells (Fig. 7a).
1. C=C1CCC2C(C)(CCC=C(C)C)C(O)CCC2(C)C1Cc1c(OC)oc(CO)c(C(=O)OC)c1=O (centres unmarked)
2. C=C1CC[C@@H]2[C@](C)(CC[C@H]3O[C@H](C=C(C)C)C[C@@]23C)[C@@H]1Cc1c(OC)oc(CO)c(C(=O)OC)c1=O

[0.2437, 0.2407]

* * *

target: Aβ42 (Homo sapiens); experiment: Th-T (thioflavin-T) assay of Aβ42 aggregation; assay type: biochemical; settings: Aβ42 aggregation time course, reading M120
Record form. Attribute: Th-T fluorescence, mean of three wells. Fill in for each entry.
Answers are plain numbers.

Completed entries (count: 5):
C=C1CC[C@@H]2[C@](C)(CC[C@H]3O[C@H](C=C(C)C)C[C@@]23C)[C@@H]1Cc1c(O)c(C)c(C)oc1=O | 3.024
C=C1CCC2C3(C)CC(C=C(C)C)OC3CCC2(C)C1Cc1c(OC)oc(C)c(C)c1=O (stereo not drawn) | 3.827
C=C1CC[C@H]2[C@]3(C)C[C@@H](C=C(C)C)O[C@H]3CC[C@]2(C)[C@@H]1Cc1c(O)c(C)c(C)oc1=O | 2.6965
C=C1CCC2C(C)(CCC=C(C)C)C(O)CCC2(C)C1Cc1c(OC)oc(C)c(C(=O)OC)c1=O (stereo not drawn) | 1.679
C=C1CC[C@H]2[C@]3(C)C[C@H](C=C(C)C)O[C@H]3CC[C@]2(C)[C@@H]1Cc1c(O)c(C)c(C)oc1=O | 3.042

Attention now shifts to the item below.
GET /values?readout=Th-T fluorescence, mean of three wells&item= C=C1CCC2C(C)(CCC=C(C)C)C(O)CCC2(C)C1Cc1c(OC)oc(CO)c(C(=O)OC)c1=O (stereo not drawn)
1.034

* * *

biological target: Aβ42 (Homo sapiens); experiment: Th-T (thioflavin-T) assay of Aβ42 aggregation; type: biochemical; conditions: head suffix _50 (concentration 50); reading M63
Record form. Attribute: Th-T fluorescence of Aβ42 (sheet Fig. 7a), mean of three wells. Fill in for each entry.
Answers are plain numbers.

Completed entries (count: 4):
C=C1CC[C@@H]2[C@](C)(CC[C@H]3O[C@H](C=C(C)C)C[C@@]23C)[C@@H]1Cc1c(OC)oc(CO)c(C(=O)OC)c1=O [Compound 21] | 0.2314
C=C1CCC2C(C)(CCC=C(C)C)C(O)CCC2(C)C1Cc1c(OC)oc(C)c(C(=O)OC)c1=O (centres unmarked) [Compound 14] | 3.83
C=C1CCC2C(C)(CCC=C(C)C)C(O)CCC2(C)C1Cc1c(OC)oc(CO)c(C(=O)OC)c1=O (centres unmarked) [Compound 13] | 0.4695
C=C1CC[C@@H]2[C@](C)(CC[C@H]3O[C@H](C=C(C)C)C[C@@]23C)[C@@H]1Cc1c(OC)oc(CO)c(C)c1=O [Compound 20] | 2.073

Attention now shifts to the item below.
GET /values?readout=Th-T fluorescence of Aβ42 (sheet Fig. 7a), mean of three wells&item= C=C1CCC2C(C)(CCC=C(C)C)C(O)CCC2(C)C1Cc1c(OC)oc(CO)c(C)c1=O (centres unmarked) [Compound 12]
1.459

* * *

target: Aβ42 (Homo sapiens, UniProt P05067); assay: Th-T (thioflavin-T) assay of Aβ42 aggregation; type: biochemical; conditions: column suffix _10; reading M2
Record form. Attribute: Th-T assay signal, mean of three wells (Fig. 7a). Fill in for each entry.

Completed entries (count: 4):
C=C1CCC2C(C)(CCC=C(C)C)C(O)CCC2(C)C1Cc1c(OC)oc(CO)c(C(=O)OC)c1=O (centres unmarked) | 0.2496
C=C1CC[C@@H]2[C@](C)(CC[C@H]3O[C@H](C=C(C)C)C[C@@]23C)[C@@H]1Cc1c(OC)oc(CO)c(C)c1=O | 0.2545
C=C1CCC2C(C)(CCC=C(C)C)C(O)CCC2(C)C1Cc1c(OC)oc(CO)c(C)c1=O (centres unmarked) | 0.2383
C=C1CC[C@@H]2[C@](C)(CC[C@H]3O[C@H](C=C(C)C)C[C@@]23C)[C@@H]1Cc1c(OC)oc(CO)c(C(=O)OC)c1=O | 0.2463

GET /values?readout=Th-T assay signal, mean of three wells (Fig. 7a)&item= C=C1CCC2C(C)(CCC=C(C)C)C(O)CCC2(C)C1Cc1c(OC)oc(C)c(C(=O)OC)c1=O (centres unmarked)
0.2207

* * *

tested on: DL1 cells; experiment: cytotoxicity in Drosophila DL1 cells; assay type: cell-based; conditions: DL1 cells, 0.04 µM, replicate 2
Test readout: Luminescence Raw2

Completed entries (count: 4):
C=C1CC[C@@H]2[C@](C)(CC[C@H]3O[C@H](C=C(C)C)C[C@@]23C)[C@@H]1Cc1c(OC)oc(CO)c(C)c1=O | 2864984
C=C1CC[C@H]2[C@]3(C)C[C@H](C=C(C)C)O[C@H]3CC[C@]2(C)[C@@H]1Cc1c(O)c(C)c(C)oc1=O | 2551013
C=C1CCC2C(C)(CCC=C(C)C)C(=O)CCC2(C)C1Cc1c(O)c(C)c(C)oc1=O (centres unmarked) | 2999528
C=C1CCC2C(C)(CCC=C(C)C)C(O)CCC2(C)C1Cc1c(OC)oc(CO)c(C)c1=O (centres unmarked) | 2143826

Attention now shifts to the item below.
GET /values?readout=Luminescence Raw2&item= C=C1CCC2C(C)(CC(=O)C=C(C)C)C(O)CCC2(C)C1Cc1c(OC)oc(C)c(C)c1=O (centres unmarked)
2800252

* * *

assay: cytotoxicity in Drosophila l(2)mbn cells; type: cell-based; settings: Drosophila, 0.2 µM, replicate 1, relative to DMSO 1%, read-out: % viability, viability 1
Test readout: viability at 0.2 µM (%)
Give bare numbers, in %.

GET /values?readout=viability at 0.2 µM&item= C=C1CCC2C(C)(CCC=C(C)C)C(O)CCC2(C)C1Cc1c(OC)oc(C)c(C)c1=O (stereo not shown) [Compound 11]
91.6

* * *

biological target: Aβ42 (Homo sapiens); assay: Th-T (thioflavin-T) assay of Aβ42 aggregation; type: biochemical; details: concentration 20, unit not given; time-course reading M136
Test readout: Th-T fluorescence of Aβ42 with compound, mean of three wells (Fig. 7a source data)

C=C1CCC2C(C)(CCC=C(C)C)C(O)CCC2(C)C1Cc1c(OC)oc(CO)c(C(=O)OC)c1=O (centres unmarked) | 1.027
C=C1CC[C@@H]2[C@](C)(CC[C@H]3O[C@H](C=C(C)C)C[C@@]23C)[C@@H]1Cc1c(OC)oc(CO)c(C)c1=O | 3.0605
C=C1CCC2C(C)(CCC=C(C)C)C(O)CCC2(C)C1Cc1c(OC)oc(C)c(C(=O)OC)c1=O (centres unmarked) | 1.5818
C=C1CCC2C(C)(CCC=C(C)C)C(O)CCC2(C)C1Cc1c(OC)oc(CO)c(C)c1=O (centres unmarked) | 2.218

Attention now shifts to the item below.
Quick check: Th-T fluorescence of Aβ42 with compound, mean of three wells (Fig. 7a source data) on Aβ42 (Homo sapiens), item C=C1CC[C@@H]2[C@](C)(CC[C@H]3O[C@H](C=C(C)C)C[C@@]23C)[C@@H]1Cc1c(OC)oc(CO)c(C(=O)OC)c1=O ?
0.9565

* * *

biological target: Aβ42 (Homo sapiens, UniProt P05067); experiment: Th-T (thioflavin-T) assay of Aβ42 aggregation; type: biochemical; details: Aβ42 aggregation time course, reading M119
Test readout: Th-T fluorescence, mean of three wells
Answers are plain numbers.

C=C1CC[C@H]2[C@]3(C)C[C@@H](C=C(C)C)O[C@H]3CC[C@]2(C)[C@@H]1Cc1c(O)c(C)c(C)oc1=O | 2.671

Take each entry in turn and give its Th-T fluorescence, mean of three wells.
1. C=C1CC[C@H]2[C@]3(C)C[C@H](C=C(C)C)O[C@H]3CC[C@]2(C)[C@@H]1Cc1c(O)c(C)c(C)oc1=O
2. C=C1CCC2C(C)(CCC=C(C)C)C(=O)CCC2(C)C1Cc1c(O)c(C)c(C)oc1=O (stereo not drawn)
3. C=C1CC[C@H]2[C@]3(C)C[C@@H](C=C(C)C)O[C@H]3CC[C@]2(C)[C@@H]1Cc1c(OC)oc(CO)c(C)c1=O

3.036
2.214
3.652

Take each entry in turn and give its Th-T fluorescence, mean of three wells.
1. C=C1CCC2C(C)(CCC=C(C)C)C(O)CCC2(C)C1Cc1c(OC)oc(C)c(C)c1=O (stereo not drawn) [Compound 15, viridoxin A hydrolysate]
2. C=C1CCC2C(C)(CCC=C(C)C)C(O)CCC2(C)C1Cc1c(O)c(C)c(C)oc1=O (stereo not drawn) [Compound 4]
3. C=C1CCC2C(C)(CCC=C(C)C)C(O)CCC2(C)C1Cc1c(O)c(C)c(C)oc1=O (stereo not drawn) [Compound 9, higginsianin B]
4. C=C1CC[C@@H]2[C@](C)(CC[C@H]3O[C@H](C=C(C)C)C[C@@]23C)[C@@H]1Cc1c(O)c(C)c(C)oc1=O
5. C=C1CC[C@H]2[C@]3(C)C[C@H](C=C(C)C)O[C@H]3CC[C@]2(C)[C@@H]1Cc1c(OC)oc(C)c(C)c1=O
6. C=C1CCC2C(C)(CC(=O)C=C(C)C)C(O)CCC2(C)C1Cc1c(OC)oc(C)c(C)c1=O (stereo not drawn)
7. CC(C)=CCC/C(C)=C/CC/C(C)=C/CC/C(C)=C/Cc1c(O)c(C)c(C)oc1=O

3.3216
2.76
2.796
3.036
3.915
3.596
2.929

Take each entry in turn and give its Th-T fluorescence, mean of three wells.
1. C=C1CCC2C(C)(CCC=C(C)C)C(O)CCC2(C)C1Cc1c(OC)oc(CO)c(C)c1=O (stereo not drawn)
2. C=C1CC[C@@H]2[C@](C)(CC[C@H]3O[C@H](C=C(C)C)C[C@@]23C)[C@@H]1Cc1c(OC)oc(CO)c(C)c1=O
3. C=C1CCC2C(C)(CCC=C(C)C)C(O)CCC2(C)C1Cc1c(OC)oc(C)c(C(=O)OC)c1=O (stereo not drawn)
4. C=C1CCC2C3(C)CC(C=C(C)C)OC3CCC2(C)C1Cc1c(OC)oc(C)c(C)c1=O (stereo not drawn)

1: 2.053; 2: 4.178; 3: 1.678; 4: 3.818

Take each entry in turn and give its Th-T fluorescence, mean of three wells.
1. C=C1CCC2C(C)(CC(=O)C=C(C)C)C(O)CCC2(C)C1Cc1c(OC)oc(CO)c(C)c1=O (stereo not drawn)
2. C=C1CCC2C(C)(CCC=C(C)C)C(O)CCC2(C)C1Cc1c(OC)oc(CO)c(C(=O)OC)c1=O (stereo not drawn)
3. C=C1CCC2C(C)(CC(=O)C=C(C)C)C(O)CCC2(C)C1Cc1c(O)c(C)c(C)oc1=O (stereo not drawn)
4. C=C1CC[C@@H]2[C@](C)(CC[C@H]3O[C@H](C=C(C)C)C[C@@]23C)[C@@H]1Cc1c(OC)oc(CO)c(C(=O)OC)c1=O

1. 3.587
2. 1.04
3. 3.421
4. 1.047

Take each entry in turn and give its Th-T fluorescence, mean of three wells.
1. C=C1CCC2C(C)(CCC=C(C)C)C(O)CCC2(C)C1Cc1c(OC)oc(C)c(C)c1=O (stereo not drawn) [Compound 11]
2. C=C1CC[C@H]2[C@]3(C)C[C@H](C=C(C)C)O[C@H]3CC[C@]2(C)[C@@H]1Cc1c(OC)oc(CO)c(C)c1=O

[3.399, 3.802]
